tested on: MCF7 breast; experiment: NCI-60 one-dose screen, 48 h; conditions: 10 µM unless noted
About 83,000 compounds went through this panel and 20% of them were active in at least one assay; those are over-represented in the sample as a whole. Activity calls are given as the source filed them. How the source made its calls: active means growth percent below 10; inactive means the rest.
Labels: active, inactive

molecule	system-under-test	assigned-category
CCc1nc2ccccc2[nH]1	MCF7 breast	inactive
O=C(/C=C/c1ccccc1)c1ccc2ccccc2c1	MCF7 breast	inactive
N[C@H]1CCC[C@@H]1NCCCCN1C(=O)c2cccc3cccc(c23)C1=O	MCF7 breast	inactive
C=C(C)[C@@H]1CC[C@]2(CN)CC[C@]3(C)[C@H](CC[C@@H]4[C@@]5(C)CCC(N)[C@@](C)(CO)[C@@H]5CC[C@]43C)[C@@H]12 (some centres undefined)	MCF7 breast	active
CCCCCCCC/C=C\CCCCCCCC(=O)Oc1cccc2cccnc12	MCF7 breast	inactive
CN1CCN(C(=O)[C@]23CCC(C)(C)C[C@@H]2C2=CC[C@@H]4[C@@]5(C)Cc6c([nH]c7ccccc67)C(C)(C)[C@@H]5CC[C@@]4(C)[C@]2(C)CC3)CC1	MCF7 breast	inactive
O=C(/C=C/C12c3ccccc3C(c3ccccc31)C1C(=O)NC(=O)C12)c1ccccc1 (centres undefined)	MCF7 breast	active
Clc1ccc(/C=C/c2nc(Nc3ccc(Cl)cc3)c3ccccc3n2)cc1	MCF7 breast	inactive
Cc1cc(N(CCCNc2ccnc3cc(Cl)ccc23)Cc2ccccn2)nc(N2CCOCC2)n1	MCF7 breast	inactive
Clc1ccc(-c2nnc(Cn3ccnc3)o2)cc1	MCF7 breast	inactive
C=C1c2c(C)nn(-c3ccc(O)cc3)c2N(C)C23C[C@@H]1C1(C)c4c(C)nn(-c5ccc(O)cc5)c4N(C)C(C)(C[C@H]12)C3 (some centres undefined)	MCF7 breast	active
Cc1cnc(Nc2ccc(OCCN3CCCC3)cc2)nc1NCc1ccco1	MCF7 breast	inactive
N#Cc1c(NC(=O)c2ccc(Br)cc2)sc2c1CCCC2	MCF7 breast	inactive
CCCc1cc(=O)oc2c3c(c4c(c12)OC(C)(C)C=C4)O[C@@H](C)[C@H](C)C3=O	MCF7 breast	inactive
COc1cc2c(cc1OC)-c1ccc3cc4c(cc3c1N(CCCN(C)C)C2)OCO4	MCF7 breast	inactive
C#CC[C@H](N)C(=O)O	MCF7 breast	inactive
Cc1ccc(S(=O)(=O)N(CC[C@@H]2C[C@H]2c2cc3ccccc3o2)C(=O)NC2CCCCC2)cc1	MCF7 breast	inactive
CCOC(=O)c1sc2ccc(NCc3nc[nH]c3C)cc2c1NC(=O)c1cc(OC)c(OC)c(OC)c1	MCF7 breast	inactive
O=C1N(c2ccccc2)C(=S)N[C@]12[C@H](c1ccccc1)C1CCCN1[C@]21C(=O)NC2C=CC(Cl)=C[C@H]21 (some centres undefined)	MCF7 breast	inactive

Attribution: PubChem BioAssay (NCI)
